System: H1703 (PDGFRa amp)
Experiment: In vitro growth inhibition of H1703 tumor cells (MTT/CCK8)
Type: cell-based, Human
Settings: in vitro growth inhibition (or induction of apoptosis), cells cultured 3 to 5 days, MTT (CCK8); read-out: IC50 H1703 (PDGFRa amp)
ENDPOINT NAME: IC50 (µM)
Just the number please, in µM, no unit attached.

Q) Would you kindly share the measured IC50 for CC(C)(C)c1cc(NC(=O)Nc2ccc(Oc3ccnc4cc(OCCN5CCOCC5)c(C(N)=O)cc34)cc2Cl)[nH]n1 [Compound 81] ?
A) 0.0113

###

System: SW48
Test: In vitro growth inhibition of PI3KCA amplified/mutant tumor cells SW48
Type: cell-based
Settings: Homo sapiens, SW48, read-out: IC50 growth inhibition
ENDPOINT NAME: pIC50
Remember, pIC50 is on a log scale: it is -log10 of the molar concentration.

Q) Would you kindly share the measured pIC50 for COc1c(OCCCN2CCOCC2)ccc2c1N=C(NC(=O)c1cnc(N)nc1)N1CCN=C21 [BAY 80-6946, reference compound] ?
A) 7.56

###

Tested on: Kasumi-1 (KIT N822K)
Assay: In vitro growth inhibition of Kasumi-1 tumor cells (MTT/CCK8)
Assay type: cell-based, Human
Conditions: Homo sapiens, Kasumi 1; in vitro growth inhibition (or induction of apoptosis), cells cultured 3 to 5 days, MTT (CCK8); read-out: IC50 Kasumi-1 (KIT N822K)
// reported pIC50 per item
Remember, pIC50 is on a log scale: it is -log10 of the molar concentration.

These recorded examples may help you get a feel for the data.
Q) Would you kindly share the measured pIC50 for COc1cc2nccc(Oc3ccc(NC(=O)Nc4cc(C(C)(C)C)on4)c(Cl)c3)c2cc1NC(C)=O [Compound 20] ?
A) 7.66

Q) Would you kindly share the measured pIC50 for CCC(=O)Nc1cc2c(Oc3ccc(NC(=O)Nc4cc(C(C)(C)C)n[nH]4)c(Cl)c3)ccnc2cc1OC [Compound 64] ?
A) 7.47

Q) Would you kindly share the measured pIC50 for CN1CCN(CCCOc2cc3nccc(Oc4ccc(NC(=O)Nc5cc(C(C)(C)C)n[nH]5)c(Cl)c4)c3cc2C(N)=O)CC1 [Compound 82] ?
A) 8.28

Q) Would you kindly share the measured pIC50 for CC(C)(C)c1cc(NC(=O)Nc2ccc(Oc3ccnc4cc(OCCN5CCOCC5)c(C(N)=O)cc34)c(Cl)c2Cl)[nH]n1 [Compound 94] ?
A) 8.37

Next:
Q) Would you kindly share the measured pIC50 for COc1cc2nccc(Oc3ccc(NC(=O)Nc4cc(C(C)(C)C)n[nH]4)c(Cl)c3)c2cc1C(N)=O [Compound 25] ?
A) 7.36

###

Test system: HCT116
Experiment: In vitro growth inhibition of PI3KCA amplified/mutant tumor cells HCT116
Assay type: cell-based
Conditions: Homo sapiens; HCT-116; PI3KCAH1047R; KRAS G13D; read-out: IC50 growth inhibition
// reported IC50 per item
Just the number please, in nM, no unit attached.

These recorded examples may help you get a feel for the data.
Q) Give HCT116 IC50 for `COc1cc2nccc(Oc3ccc(NC(=O)Nc4cc(C(C)(C)C)nn4C)c(Cl)c3Cl)c2cc1C(N)=O`
A) 11.9

Q) Give HCT116 IC50 for `CN1CCN(CCCOc2cc3nccc(Oc4ccc(NC(=O)Nc5cc(C(C)(C)C)n[nH]5)c(Cl)c4Cl)c3cc2C(N)=O)CC1`
A) 33.2

Proceeding to the next molecule to report its IC50.
Q) Give HCT116 IC50 for `COCCOc1cc2nccc(Oc3ccc(NC(=O)Nc4cc(C(C)(C)C)n[nH]4)c(Cl)c3)c2cc1NC(C)=O`
A) 26.7

###

System: KATO III (FGFR2 amp)
Test: In vitro growth inhibition of KATO III tumor cells (MTT/CCK8)
Format: cell-based, Human
Settings: Homo sapiens, KATO III; in vitro growth inhibition (or induction of apoptosis), cells cultured 3 to 5 days, MTT (CCK8); read-out: IC50 KATO III (FGFR2 amp)
ENDPOINT NAME: pIC50
Remember, pIC50 is on a log scale: it is -log10 of the molar concentration.

These recorded examples may help you get a feel for the data.
Q) Would you kindly share the measured pIC50 for `CN(C)CCOc1cc2nccc(Oc3ccc(NC(=O)Nc4cc(C(C)(C)C)n[nH]4)c(Cl)c3Cl)c2cc1C(N)=O` ?
A) 8.45

Q) Would you kindly share the measured pIC50 for `COc1cc2nccc(Oc3ccc(NC(=O)Nc4cc(C(C)(C)C)on4)c(Cl)c3)c2cc1C(N)=O` ?
A) 9.29

Q) Would you kindly share the measured pIC50 for `CNC(=O)c1cc2c(Oc3ccc(NC(=O)Nc4cc(C(C)(C)C)n[nH]4)c(C)c3)ccnc2cc1OC` ?
A) 8.53

Q) Would you kindly share the measured pIC50 for `COc1cc2nccc(Oc3ccc(NC(=O)Nc4cc(C(C)(C)C)on4)cc3Cl)c2cc1C(N)=O` ?
A) 8.53

Q) Would you kindly share the measured pIC50 for `CNC(=O)c1cc2c(Oc3ccc(NC(=O)Nc4cc(C(C)(C)C)nn4C)cc3C)ccnc2cc1OC` ?
A) 8.17

Q) Would you kindly share the measured pIC50 for `COc1cc2nccc(Oc3ccc(NC(=O)Nc4cc(C(C)(C)C)n[nH]4)c(Cl)c3)c2cc1C(=O)N(C)C` ?
A) 7.73

Q) Would you kindly share the measured pIC50 for `COc1cc2nccc(Oc3ccc(NC(=O)Nc4cc(C5CC5)n[nH]4)c(Cl)c3)c2cc1C(N)=O` ?
A) 7.40

Q) Would you kindly share the measured pIC50 for `COCCOc1cc2nccc(Oc3ccc(NC(=O)Nc4cc(C(C)(C)C)nn4CCN4CCOCC4)cc3F)c2cc1NC(C)=O` ?
A) 9.40

Next:
Q) Would you kindly share the measured pIC50 for `CC(C)(C)c1cc(NC(=O)Nc2ccc(Oc3cc(C(F)(F)F)nc4ccccc34)cc2Cl)no1` ?
A) 6.13

Q) Would you kindly share the measured pIC50 for `COc1cc2nccc(Oc3ccc(NC(=O)Nc4cc(C(C)(C)C)on4)c(Cl)c3)c2cc1NC(=O)C1CCCC1` ?
A) 7.98

Q) Would you kindly share the measured pIC50 for `CNC(=O)c1cc2c(Oc3ccc(NC(=O)Nc4cc(C(C)(C)C)n[nH]4)c(Cl)c3Cl)ccnc2cc1OC` ?
A) 9.55

###

Tested on: Kasumi-1 (KIT N822K)
Test: In vitro growth inhibition of Kasumi-1 tumor cells (MTT/CCK8)
Type: cell-based, Human
Conditions: Homo sapiens, Kasumi 1; in vitro growth inhibition (or induction of apoptosis), cells cultured 3 to 5 days, MTT (CCK8); read-out: IC50 Kasumi-1 (KIT N822K)
// reported IC50 per item
Just the number please, in nM, no unit attached.

These recorded examples may help you get a feel for the data.
Q) Would you kindly share the measured IC50 for `COc1cc2nccc(Oc3ccc(NC(=O)Nc4cc(C(C)(C)C)on4)cc3Br)c2cc1C(N)=O` ?
A) 46

Q) Would you kindly share the measured IC50 for `COc1cc2nccc(Oc3ccc(NC(=O)Nc4cc(C(C)(C)C)nn4C)c(Cl)c3)c2cc1C(N)=O` ?
A) 16.9

Q) Would you kindly share the measured IC50 for `COc1cc2nccc(Oc3ccc(NC(=O)Nc4cc(C(C)(C)C)nn4C)c(Cl)c3C)c2cc1C(N)=O` ?
A) 0.375

Q) Would you kindly share the measured IC50 for `CNC(=O)c1cc2c(Oc3ccc(NC(=O)Nc4cc(C(C)(C)C)nn4C4CCCC4)c(Cl)c3)ccnc2cc1OC` ?
A) 35.7

Q) Would you kindly share the measured IC50 for `CNC(=O)c1cc2c(Oc3ccc(NC(=O)Nc4cc(C(C)(C)C)on4)c(Cl)c3)ccnc2cc1OC` ?
A) 33.3

Q) Would you kindly share the measured IC50 for `COc1cc2nccc(Oc3ccc(NC(=O)Nc4cc(C(C)(C)C)n[nH]4)cc3Cl)c2cc1NC(C)=O` ?
A) 24.1

Q) Would you kindly share the measured IC50 for `COc1cc2nccc(Oc3ccc(NC(=O)Nc4cc(C(C)(C)C)n[nH]4)c(Cl)c3)c2cc1C(=O)N(C)C` ?
A) 571

Q) Would you kindly share the measured IC50 for `COc1cc2nccc(Oc3ccc(NC(=O)Nc4cc(C(C)(C)C)on4)c(Cl)c3)c2cc1C(N)=O` ?
A) 26.1

Next:
Q) Would you kindly share the measured IC50 for `COc1cc2nccc(Oc3ccc(NC(=O)Nc4cc(C(C)(C)C)n[nH]4)c(C)c3)c2cc1C(N)=O` ?
A) 135

Q) Would you kindly share the measured IC50 for `COc1cc2nccc(Oc3ccc(NC(=O)Nc4cc(C(C)(C)C)on4)cc3)c2cc1C(N)=O` ?
A) 90.1

Q) Would you kindly share the measured IC50 for `CCn1nc(C(C)(C)C)cc1NC(=O)Nc1ccc(Oc2ccnc3cc(OC)c(C(=O)NC)cc23)cc1Cl` ?
A) 15.9

Q) Would you kindly share the measured IC50 for `CNC(=O)c1cc2c(Oc3ccc(NC(=O)Nc4cc(C(C)(C)C)n[nH]4)cc3Cl)ccnc2cc1OC` ?
A) 26.1
